src = patent US9113629B2

Listing of recorded pest or weed control at 70 g/ha by entry.
- Tested on: Key Broadleaf Weed and Crop Species
- Assay summary: Post-emergent Test II herbicidal activity (Table 5)
- Assay type: in vivo
- Experimental conditions: post-emergence, 336 h; EPHHL: wild poinsettia (Euphorbia heterophylla); 70 g ai/ha; post-emergent; 14 days after application; read-out: Visual Growth Reduction (%) 14 Days After Application EPHHL
- Excerpt: Post-emergent Test II: Seeds or nutlets of the desired test plant species were planted in Sun Gro Metro-Mix® 360 planting mixture, which typically has a pH of 6.0 to 6.8 and an organic matter content of about 30 percent, in plastic pots with a surface area of 64 square centimeters. When required to ensure good germination and healthy plants, a fungicide treatment and/or other chemical or physical treatment was applied. […]

Need pest or weed control at 70 g/ha of COC(=O)c1nc(-c2ccc(C#N)cc2F)c(F)c(N)c1Cl [Compound 44] , thanks. 85 to 94%

Need pest or weed control at 70 g/ha of COC(=O)c1nc(-c2ccc(OC(F)F)cc2)cc(N)c1Cl [Compound 23] , thanks. 95 to 100%

Need pest or weed control at 70 g/ha of Cc1c(-c2ccc(I)c(F)c2)nc(C(=O)O)c(Cl)c1N [Compound 87] , thanks. 0 to 29%

Need pest or weed control at 70 g/ha of COC(=O)c1nc(-c2cc(F)c(Br)cc2F)cc(N)c1Cl [Compound 127] , thanks. 95 to 100%

Need pest or weed control at 70 g/ha of COC(=O)c1nc(-c2ccc(I)cc2)c(C)c(N)c1Cl [Compound 136] , thanks. 0 to 29%

* * *

Listing of recorded pest or weed control at 140 g/ha by entry.
- Tested on: Key Grass and Sedge Weeds as well as Grass Crops
- Assay summary: Post-emergent Test II herbicidal activity (Table 6)
- Format: in vivo
- Experimental conditions: post-emergence, 336 h, SETFA: giant foxtail (Setaria faberi), application rate 140 g ai/ha, read-out: Visual Growth Reduction (%) 14 Days After Application, SETFA

Example results:
C#Cc1ccc(-c2nc(C(=O)OC)c(C=C)c(N)c2F)cc1 ... 0 to 29%
COc1c(N)nc(-c2ccc(Br)c(F)c2F)nc1C(=O)O ... 95 to 100%
C#Cc1ccc(-c2nc(N)c(OC)c(C(=O)O)n2)cc1 ... 45 to 59%

Need pest or weed control at 140 g/ha of Nc1c(Cl)c(C(=O)O)nc(-c2ccc(OC(F)F)cc2)c1Cl , thanks. 0 to 29%

* * *

- System: KCHSC: kochia (Kochia scoparia)
- Assay summary: Post-emergent Test III, herbicidal activity in wheat and barley
- Format: in vivo
- Experimental conditions: Table 9; dose for 50 percent growth reduction, probit analysis; 21 d
Listing of recorded GR50 KCHSC by entry.
Numbers only; they are read as g ai/ha.

Nc1c(F)c(-c2cc(F)c(Br)cc2F)nc(C(=O)O)c1Cl ... 1

Under KCHSC: kochia (Kochia scoparia): GR50 KCHSC value of COC(=O)c1nc(-c2ccc(Br)cc2F)nc(N)c1OC ? 8

Under KCHSC: kochia (Kochia scoparia): GR50 KCHSC value of COC(=O)c1nc(-c2ccc(I)cc2F)cc(N)c1Cl ? 4

Under KCHSC: kochia (Kochia scoparia): GR50 KCHSC value of Nc1c(Cl)c(C(=O)O)nc(-c2ccc(Br)cc2)c1Cl ? 8

Under KCHSC: kochia (Kochia scoparia): GR50 KCHSC value of C=Cc1c(C(=O)O)nc(-c2ccc(Br)cc2)c(F)c1N ? 20
